- Subject Of Test: Cruzipain (Trypanosoma cruzi, UniProt P25779)
- Sequence (P25779 whole entry): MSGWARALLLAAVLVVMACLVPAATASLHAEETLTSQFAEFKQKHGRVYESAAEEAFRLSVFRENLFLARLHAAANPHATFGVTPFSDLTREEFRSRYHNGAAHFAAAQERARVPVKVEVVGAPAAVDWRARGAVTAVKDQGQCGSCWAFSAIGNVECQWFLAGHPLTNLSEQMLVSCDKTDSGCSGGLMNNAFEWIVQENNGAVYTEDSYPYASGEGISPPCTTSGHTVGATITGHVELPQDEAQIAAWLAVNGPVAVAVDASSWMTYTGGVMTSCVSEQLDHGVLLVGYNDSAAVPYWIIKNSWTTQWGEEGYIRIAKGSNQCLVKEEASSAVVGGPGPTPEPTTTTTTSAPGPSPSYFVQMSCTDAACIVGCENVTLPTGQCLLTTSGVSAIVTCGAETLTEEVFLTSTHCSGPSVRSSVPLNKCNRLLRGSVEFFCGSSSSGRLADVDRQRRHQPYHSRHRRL
- Experiment: Inhibition of Trypanosoma cruzi cruzain preincubated for 5 mins before substrate addition
Measured pIC50 by item
// field semantics: pIC50 = negative decimal log of concentration (mol/L)

{"Compound Structure": "Nc1ccccc1-c1nnc(C(=O)Nc2ccc3[nH]ncc3c2)o1", "Value Reported": 4.39}

Kindly review the next compound as well.
Report pIC50, nothing else, for this compound: Cc1cc2cc(NC(=O)c3nnc(-c4ccccc4N)o3)ccc2[nH]1 5.22

----------
- Subject Of Test: Cruzipain (Trypanosoma cruzi)
- Experiment: Inhibition of Trypanosoma cruzi cruzain preincubated for 5 mins before substrate addition
Observable: log10 of IC50 (log10 of the value in µM)
Values below are the log10 of the recorded IC50, with µM as the unit.

{"Compound": "Nc1ccccc1-c1nnc(C(=O)Nc2cc(-c3ccccc3)[nH]n2)o1", "log10 of IC50": -0.10}
{"Compound": "Nc1ccccc1-c1nnc(C(=O)NC2CCc3ccccc32)o1 (configuration not stated)", "log10 of IC50": 1.23}
{"Compound": "Nc1ccccc1-c1nnc(C(=O)Nc2cc(-c3cccs3)n[nH]2)o1", "log10 of IC50": 0.00}
{"Compound": "Nc1ccccc1-c1nnc(C(=O)Nc2nc(-c3ccc(Cl)cc3)cs2)o1", "log10 of IC50": 0.48}
{"Compound": "Nc1ccccc1-c1nnc(C(=O)NCc2csc(-c3cccs3)n2)o1", "log10 of IC50": 0.30}
{"Compound": "CC(NC(=O)c1nnc(-c2ccccc2N)o1)C12CC3CC(CC(C3)C1)C2 (configuration not stated)", "log10 of IC50": 1.26}
{"Compound": "CCC(NC(=O)COC(=O)c1cccnc1N)c1ccc(Br)cc1 (configuration not stated)", "log10 of IC50": 1.92}
{"Compound": "Nc1ccccc1-c1nnc(C(=O)NCc2cccc(N3CCOCC3)c2)o1", "log10 of IC50": 1.52}

Kindly review the next compound as well.
For Cruzipain (Trypanosoma cruzi), give log10 of IC50 of the listed compound: Nc1ccccc1-c1nnc(C(=O)NCc2ccc3c(c2)OCO3)o1 0.78

----------
- Subject Of Test: Cruzipain (Trypanosoma cruzi)
- Experiment: Inhibition of Trypanosoma cruzi cruzain assessed as colloidal aggregates particles formation after 5 mins by flow cytometry
Measured Activity by item

Solved entries:
{"Compound Structure": "Nc1ccccc1-c1nnc(C(=O)Nc2ccc3oc4c(c3c2)CCCC4)o1", "Value Reported": "> 100 µM"}
{"Compound Structure": "Nc1ccccc1-c1nnc(C(=O)NCCCN2CCCC2=O)o1", "Value Reported": "> 200 µM"}

For Cruzipain (Trypanosoma cruzi), give Activity of the listed compound: CCN1CCC[C@H]1CNC(=O)c1nnc(-c2ccccc2N)o1 > 200 µM

----------
- Subject Of Test: Cruzipain (Trypanosoma cruzi)
- Experiment: Inhibition of Trypanosoma cruzi cruzain preincubated for 5 mins before substrate addition in presence of 0.01% Triton X-100
pIC50: −log10 of the molar value.
Measured pIC50 by item

Solved entries:
{"Compound Structure": "Nc1ccccc1-c1nnc(C(=O)NCCCN2CCCC2=O)o1", "pIC50": "< 4.00"}
{"Compound Structure": "O=C(COC(=O)c1ccccn1)Nc1cc(Cl)ccc1Cl", "pIC50": "< 3.70"}
{"Compound Structure": "Cc1cccc(C(=O)OCC(=O)Nc2cc(Cl)ccc2Cl)c1", "pIC50": "< 3.70"}
{"Compound Structure": "Cn1ccc(NC(=O)c2nnc(-c3ccccc3N)o2)n1", "pIC50": "< 4.00"}
{"Compound Structure": "CCN1CCC[C@H]1CNC(=O)c1nnc(-c2ccccc2N)o1", "pIC50": "< 4.00"}
{"Compound Structure": "Nc1ccccc1-c1nnc(C(=O)NCCN2CCOCC2)o1", "pIC50": "< 4.00"}

Report pIC50, nothing else, for this compound: Cn1nccc1NC(=O)c1nnc(-c2ccccc2N)o1 < 4.00

Report pIC50, nothing else, for this compound: Cc1cc2cc(NC(=O)c3nnc(-c4ccccc4N)o3)ccc2[nH]1 < 4.00
